Target Of Assay: human NK-2 receptor (Homo sapiens)
Construct: expressed in transfected cells; host or cells: CHO-hNK-2R cells (CHO-derived), membrane preparation
Sequence (P21452 1-398): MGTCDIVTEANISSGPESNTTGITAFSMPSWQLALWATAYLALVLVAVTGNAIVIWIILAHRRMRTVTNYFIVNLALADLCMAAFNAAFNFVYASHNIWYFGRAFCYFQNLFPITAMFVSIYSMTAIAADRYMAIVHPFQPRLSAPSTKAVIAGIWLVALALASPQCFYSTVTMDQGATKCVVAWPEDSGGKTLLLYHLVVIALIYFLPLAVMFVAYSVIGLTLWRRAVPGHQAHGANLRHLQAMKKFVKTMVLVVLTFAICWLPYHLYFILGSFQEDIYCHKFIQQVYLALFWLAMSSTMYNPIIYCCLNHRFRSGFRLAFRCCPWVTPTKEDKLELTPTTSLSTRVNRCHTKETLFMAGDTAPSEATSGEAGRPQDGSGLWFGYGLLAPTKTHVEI
Test Protocol: NK-2 Receptor Binding Assay (CHO-hNK-2R membranes, iodohistidyl-neurokinin A)
Test Settings: inhibition of neurokinin A binding at ten micromolar, read-out: Percent Inhibition @ 10 μM
Endpoint: inhibition at 10 µM (%)

Reference set (2 entries):
Ask | Requested field: inhibition at 10 µM. Item: Cc1cccc(-c2nc3ccc(OCCN4CCCCCC4)cc3n2Cc2ccccc2)c1 [Example 92]
Reply | 82.5

Ask | Requested field: inhibition at 10 µM. Item: Cc1cccc(-c2nc3ccc(OCCCCl)cc3n2Cc2ccccc2)c1 [Example 97]
Reply | 64.4

I. COc1cc(-c2nc3ccc(OCCN4CCCCCC4)cc3n2Cc2ccccc2)cc(OC)c1OC [Example 73]
II. COc1cc(-c2nc3ccccc3n2Cc2ccc(C)cc2)cc(OC)c1OC [Example 55]
III. COc1cc(-c2nc3ccc(OCCN4CCCC4)cc3n2Cc2ccccc2)cc(OC)c1OC [Example 72]
Ask | With regard to inhibition at 10 µM, arrange the entries in ascending order, please. List the labels, following the order given in the request.
Reply | II, III, I
(II: 21.9%, III: 53.8%, I: 83.5%)

* * *

Target Of Assay: NK-1 receptor (Homo sapiens, UniProt P25103)
Construct: an aliquot of IM9 cells; endogenous in cells; host or cells: IM9 cells (whole cells)
Sequence (P25103 whole entry): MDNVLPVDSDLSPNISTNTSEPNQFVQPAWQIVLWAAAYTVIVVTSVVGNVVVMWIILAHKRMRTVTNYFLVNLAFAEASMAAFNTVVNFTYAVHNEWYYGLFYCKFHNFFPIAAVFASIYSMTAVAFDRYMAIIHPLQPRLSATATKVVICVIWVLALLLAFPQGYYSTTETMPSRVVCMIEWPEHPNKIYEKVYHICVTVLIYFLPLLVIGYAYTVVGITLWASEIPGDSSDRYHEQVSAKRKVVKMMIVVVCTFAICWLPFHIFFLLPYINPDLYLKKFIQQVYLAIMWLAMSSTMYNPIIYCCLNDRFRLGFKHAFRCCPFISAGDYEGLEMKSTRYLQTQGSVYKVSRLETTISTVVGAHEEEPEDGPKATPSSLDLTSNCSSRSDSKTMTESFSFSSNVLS
Test Protocol: NK-1 Receptor Binding Assay (competition with labeled substance P on IM9 cells)
Test Settings: @ 20μM, inhibition of substance P binding to the NK-1 receptor, read-out: Percent Inhibition
Structures can show the parent of a compound that is named as a salt.
Endpoint: inhibition at 20 µM (%)

Ask | Lab note: need inhibition at 20 µM with NK-1 receptor (Homo sapiens, UniProt P25103) for entry `Cc1ccc(-c2nc3ccccc3n2-c2ccccc2)cc1` , please look it up.
Reply | 37

Ask | Lab note: need inhibition at 20 µM with NK-1 receptor (Homo sapiens, UniProt P25103) for entry `COc1ccc(-c2nc3ccccc3n2-c2ccc(Cl)cc2)cc1` , please look it up.
Reply | 17

Ask | Lab note: need inhibition at 20 µM with NK-1 receptor (Homo sapiens, UniProt P25103) for entry CN(C)CCn1c(-c2ccccc2)nc2ccccc21 [Example 26, dihydrochloride] , please look it up.
Reply | 0

a. FC(F)(F)c1cccc(-c2nc3ccccc3n2-c2ccccc2)c1
b. Clc1ccc(-c2nc3ccccc3n2-c2ccccc2)cc1
Ask | // pick larger inhibition at 20 µM from pair: a vs b Lab note: record the label of whichever item you select.
Reply | b
(b: 38%, a: 15%)
